These data points were gathered from patent US4956384A.

test system: helicoidal strips of rabbit aorta; experiment: In vitro vasodilating activity: inhibition of K+-induced contraction of aorta strips; assay type: cell-based, male albino rabbits (New Zealand strain); conditions: Table III, relative to IS-2-N
Measured Potency ratio, In vitro, listed per entry.
measurement.label: Potency ratio, In vitro

>>> measured_value("CCOC(=O)CCCCC(=O)O[C@@H]1CO[C@H]2[C@@H]1OC[C@@H]2O[N+](=O)[O-] [XIII]")
6.6
>>> measured_value("COc1cc(C(=O)O[C@@H]2CO[C@H]3[C@@H]2OC[C@@H]3O[N+](=O)[O-])cc(OC)c1OC [X]")
1
>>> measured_value("CCC(=O)O[C@@H]1CO[C@H]2[C@@H]1OC[C@@H]2O[N+](=O)[O-] [IS-5P-2N, isosorbide 2-nitrate 5-propionate, reference compound]")
15.6
>>> measured_value("COc1ccc(C=CC(=O)O[C@@H]2CO[C@H]3[C@@H]2OC[C@@H]3O[N+](=O)[O-])cc1OC [VII]")
1
